Entries and their measured Fig. 7a Th-T reading, mean of three wells follow.
# experimental target: Aβ42 (Homo sapiens)
# assay method text: Th-T (thioflavin-T) assay of Aβ42 aggregation
# Format: biochemical
# experimental parameters: column suffix _10; reading M85
reported endpoint: Fig. 7a Th-T reading, mean of three wells

C=C1CC[C@@H]2[C@](C)(CC[C@H]3O[C@H](C=C(C)C)C[C@@]23C)[C@@H]1Cc1c(OC)oc(CO)c(C)c1=O [Compound 20] = 3.354
C=C1CC[C@@H]2[C@](C)(CC[C@H]3O[C@H](C=C(C)C)C[C@@]23C)[C@@H]1Cc1c(OC)oc(CO)c(C(=O)OC)c1=O [Compound 21] = 1.478
C=C1CCC2C(C)(CCC=C(C)C)C(O)CCC2(C)C1Cc1c(OC)oc(CO)c(C(=O)OC)c1=O (centres unmarked) [Compound 13] = 1.544
C=C1CCC2C(C)(CCC=C(C)C)C(O)CCC2(C)C1Cc1c(OC)oc(CO)c(C)c1=O (centres unmarked) [Compound 12] = 3.136
C=C1CCC2C(C)(CCC=C(C)C)C(O)CCC2(C)C1Cc1c(OC)oc(C)c(C(=O)OC)c1=O (centres unmarked) [Compound 14] = 2.79

----------
Attribute: Th-T fluorescence, mean of three wells
# experimental target: Aβ42 (Homo sapiens, UniProt P05067)
# Sequence (P05067 672-713): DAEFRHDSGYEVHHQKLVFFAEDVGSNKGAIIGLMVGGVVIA
# assay method text: Th-T (thioflavin-T) assay of Aβ42 aggregation
# Format: biochemical
# experimental parameters: Aβ42 aggregation time course, reading M127
reported endpoint: Th-T fluorescence, mean of three wells

C=C1CCC2C(C)(CCC=C(C)C)C(O)CCC2(C)C1Cc1c(O)c(C)c(C)oc1=O (stereo not drawn) [Compound 9, higginsianin B] = 2.782
C=C1CC[C@H]2[C@]3(C)C[C@H](C=C(C)C)O[C@H]3CC[C@]2(C)[C@@H]1Cc1c(OC)oc(CO)c(C)c1=O = 3.782
C=C1CCC2C(C)(CCC=C(C)C)C(=O)CCC2(C)C1Cc1c(O)c(C)c(C)oc1=O (stereo not drawn) = 2.187
C=C1CC[C@H]2[C@]3(C)C[C@H](C=C(C)C)O[C@H]3CC[C@]2(C)[C@@H]1Cc1c(O)c(C)c(C)oc1=O = 3.038
C=C1CC[C@@H]2[C@](C)(CC[C@H]3O[C@H](C=C(C)C)C[C@@]23C)[C@@H]1Cc1c(OC)oc(CO)c(C)c1=O = 4.172
C=C1CC[C@H]2[C@]3(C)C[C@H](C=C(C)C)O[C@H]3CC[C@]2(C)[C@@H]1Cc1c(OC)oc(C)c(C)c1=O = 3.86
CC(C)=CCC/C(C)=C/CC/C(C)=C/CC/C(C)=C/Cc1c(O)c(C)c(C)oc1=O = 2.935
C=C1CCC2C(C)(CCC=C(C)C)C(O)CCC2(C)C1Cc1c(OC)oc(CO)c(C)c1=O (stereo not drawn) = 2.041
C=C1CCC2C(C)(CC(=O)C=C(C)C)C(O)CCC2(C)C1Cc1c(OC)oc(CO)c(C)c1=O (stereo not drawn) = 3.587
C=C1CCC2C(C)(CCC=C(C)C)C(O)CCC2(C)C1Cc1c(O)c(C)c(C)oc1=O (stereo not drawn) [Compound 4] = 2.744
C=C1CCC2C(C)(CCC=C(C)C)C(O)CCC2(C)C1Cc1c(OC)oc(C)c(C(=O)OC)c1=O (stereo not drawn) = 1.689
C=C1CCC2C(C)(CC(=O)C=C(C)C)C(O)CCC2(C)C1Cc1c(OC)oc(C)c(C)c1=O (stereo not drawn) = 3.54
C=C1CC[C@H]2[C@]3(C)C[C@@H](C=C(C)C)O[C@H]3CC[C@]2(C)[C@@H]1Cc1c(O)c(C)c(C)oc1=O = 2.67
C=C1CC[C@H]2[C@]3(C)C[C@@H](C=C(C)C)O[C@H]3CC[C@]2(C)[C@@H]1Cc1c(OC)oc(CO)c(C)c1=O = 3.63
C=C1CCC2C(C)(CCC=C(C)C)C(O)CCC2(C)C1Cc1c(OC)oc(C)c(C)c1=O (stereo not drawn) [Compound 15, viridoxin A hydrolysate] = 3.317
C=C1CC[C@@H]2[C@](C)(CC[C@H]3O[C@H](C=C(C)C)C[C@@]23C)[C@@H]1Cc1c(OC)oc(CO)c(C(=O)OC)c1=O = 1.027
C=C1CCC2C3(C)CC(C=C(C)C)OC3CCC2(C)C1Cc1c(OC)oc(C)c(C)c1=O (stereo not drawn) = 3.811
C=C1CC[C@@H]2[C@](C)(CC[C@H]3O[C@H](C=C(C)C)C[C@@]23C)[C@@H]1Cc1c(O)c(C)c(C)oc1=O = 3.018
C=C1CCC2C(C)(CCC=C(C)C)C(O)CCC2(C)C1Cc1c(OC)oc(C)c(C)c1=O (stereo not drawn) [Compound 11] = 3.386
C=C1CCC2C(C)(CCC=C(C)C)C(O)CCC2(C)C1Cc1c(OC)oc(CO)c(C(=O)OC)c1=O (stereo not drawn) = 1.0394
C=C1CCC2C(C)(CC(=O)C=C(C)C)C(O)CCC2(C)C1Cc1c(O)c(C)c(C)oc1=O (stereo not drawn) = 3.446

----------
# experimental target: Aβ42 (Homo sapiens)
# assay method text: Th-T (thioflavin-T) assay of Aβ42 aggregation
# Type: biochemical
# experimental parameters: column suffix _50; measurement M24
Entries annotated with measured Th-T fluorescence, mean of three wells (Fig. 7a)
reported endpoint: Th-T fluorescence, mean of three wells (Fig. 7a)

C=C1CCC2C(C)(CCC=C(C)C)C(O)CCC2(C)C1Cc1c(OC)oc(CO)c(C)c1=O (centres unmarked) = 1.656
C=C1CCC2C(C)(CCC=C(C)C)C(O)CCC2(C)C1Cc1c(OC)oc(CO)c(C(=O)OC)c1=O (centres unmarked) = 0.3154
C=C1CCC2C(C)(CCC=C(C)C)C(O)CCC2(C)C1Cc1c(OC)oc(C)c(C(=O)OC)c1=O (centres unmarked) = 0.7075
C=C1CC[C@@H]2[C@](C)(CC[C@H]3O[C@H](C=C(C)C)C[C@@]23C)[C@@H]1Cc1c(OC)oc(CO)c(C(=O)OC)c1=O = 0.2101
C=C1CC[C@@H]2[C@](C)(CC[C@H]3O[C@H](C=C(C)C)C[C@@]23C)[C@@H]1Cc1c(OC)oc(CO)c(C)c1=O = 2.2076

----------
# experimental target: Aβ42 (Homo sapiens)
# assay method text: Th-T (thioflavin-T) assay of Aβ42 aggregation
# Format: biochemical
# experimental parameters: column suffix _10; reading M94
reported endpoint: Fig. 7a Th-T reading, mean of three wells

C=C1CCC2C(C)(CCC=C(C)C)C(O)CCC2(C)C1Cc1c(OC)oc(CO)c(C)c1=O (centres unmarked) = 2.971
C=C1CC[C@@H]2[C@](C)(CC[C@H]3O[C@H](C=C(C)C)C[C@@]23C)[C@@H]1Cc1c(OC)oc(CO)c(C(=O)OC)c1=O = 1.598
C=C1CC[C@@H]2[C@](C)(CC[C@H]3O[C@H](C=C(C)C)C[C@@]23C)[C@@H]1Cc1c(OC)oc(CO)c(C)c1=O = 3.328
C=C1CCC2C(C)(CCC=C(C)C)C(O)CCC2(C)C1Cc1c(OC)oc(C)c(C(=O)OC)c1=O (centres unmarked) = 2.853
C=C1CCC2C(C)(CCC=C(C)C)C(O)CCC2(C)C1Cc1c(OC)oc(CO)c(C(=O)OC)c1=O (centres unmarked) = 1.561

----------
Overview of recorded Th-T fluorescence, mean of three wells (Fig. 7a) for various compounds
# experimental target: UniProt:P05067
# assay method text: Th-T (thioflavin-T) assay of Aβ42 aggregation
# Assay type: biochemical
# experimental parameters: reading M115; compound at 50 (head suffix _50)
reported endpoint: Th-T fluorescence, mean of three wells (Fig. 7a)

C=C1CCC2C(C)(CCC=C(C)C)C(O)CCC2(C)C1Cc1c(OC)oc(CO)c(C(=O)OC)c1=O (centres unmarked) = 0.477
C=C1CCC2C(C)(CCC=C(C)C)C(O)CCC2(C)C1Cc1c(OC)oc(CO)c(C)c1=O (centres unmarked) = 1.466
C=C1CC[C@@H]2[C@](C)(CC[C@H]3O[C@H](C=C(C)C)C[C@@]23C)[C@@H]1Cc1c(OC)oc(CO)c(C)c1=O = 2.1006
C=C1CC[C@@H]2[C@](C)(CC[C@H]3O[C@H](C=C(C)C)C[C@@]23C)[C@@H]1Cc1c(OC)oc(CO)c(C(=O)OC)c1=O = 0.4915
C=C1CCC2C(C)(CCC=C(C)C)C(O)CCC2(C)C1Cc1c(OC)oc(C)c(C(=O)OC)c1=O (centres unmarked) = 1.096

----------
# experimental target: Aβ42 (Homo sapiens)
# assay method text: Th-T (thioflavin-T) assay of Aβ42 aggregation
# Type: biochemical
# experimental parameters: compound at 20; reading M46 of time course
reported endpoint: Th-T fluorescence, mean of three wells

C=C1CCC2C(C)(CCC=C(C)C)C(O)CCC2(C)C1Cc1c(OC)oc(C)c(C(=O)OC)c1=O (centres unmarked) [Compound 14] = 2.138
C=C1CC[C@@H]2[C@](C)(CC[C@H]3O[C@H](C=C(C)C)C[C@@]23C)[C@@H]1Cc1c(OC)oc(CO)c(C(=O)OC)c1=O [Compound 21] = 0.214
C=C1CCC2C(C)(CCC=C(C)C)C(O)CCC2(C)C1Cc1c(OC)oc(CO)c(C(=O)OC)c1=O (centres unmarked) [Compound 13] = 0.5564
C=C1CCC2C(C)(CCC=C(C)C)C(O)CCC2(C)C1Cc1c(OC)oc(CO)c(C)c1=O (centres unmarked) [Compound 12] = 2.17
C=C1CC[C@@H]2[C@](C)(CC[C@H]3O[C@H](C=C(C)C)C[C@@]23C)[C@@H]1Cc1c(OC)oc(CO)c(C)c1=O [Compound 20] = 3.446
